Tested on: recombinant erythrose reductase type II
assay-explanation: Substrate specificity of purified recombinant erythrose reductase type II, NADPH consumption at 340 nm
Assay type: biochemical, Trichosporonoides megachiliensis
test-context: rate with D-erythrose = 100%; 12 mM substrate, 0.2 mM NADPH, 50 mM phosphate buffer pH 6.5, 37° C., 5 minutes
Could you please report measured Relative value (%) of reaction rate, Recombinant type Type II for the items listed next?
Numbers only, in %.

Some solved cases for reference:
[in] Consider the compound `O=C(CO)[C@@H](O)[C@H](O)CO` and give its recorded Relative value (%) of reaction rate, Recombinant type Type II.
[out] 3.5

[in] Consider the compound `O=C(CO)[C@@H](O)[C@H](O)[C@@H](O)CO` and give its recorded Relative value (%) of reaction rate, Recombinant type Type II.
[out] 0.0

[in] Consider the compound `O=Cc1ccc([N+](=O)[O-])cc1` and give its recorded Relative value (%) of reaction rate, Recombinant type Type II.
[out] 8.8

[in] Consider the compound O=C[C@H](O)[C@@H](O)[C@H](O)[C@H](O)C(=O)O [D-glucuronate] and give its recorded Relative value (%) of reaction rate, Recombinant type Type II.
[out] 0.0

[in] Consider the compound `O=C[C@@H](O)[C@H](O)[C@H](O)CO` and give its recorded Relative value (%) of reaction rate, Recombinant type Type II.
[out] 0.0

Please give Relative value (%) of reaction rate, Recombinant type Type II, item by item, for the list that follows.
1. O=C[C@H](O)[C@@H](O)[C@H](O)[C@H](O)CO
2. OC[C@H]1O[C@H](O[C@H]2O[C@H](CO)[C@@H](O)[C@H](O)[C@H]2O)[C@H](O)[C@@H](O)[C@@H]1O
3. O=C(CO)[C@@H](O)[C@H](O)[C@H](O)CO
4. O=C[C@H](O)[C@H](O)CO
5. O=C[C@H](O)[C@H](O)[C@H](O)CO

[out]
1: 0.0; 2: 0.0; 3: 0.0; 4: 100.0; 5: 0.7
